Origin of values: patent US10047051B2

tested_on: CFTR-G178R (Homo sapiens, UniProt P13569, G178R)
Construct: expressed in transfected cells
Sequence (P13569 whole entry G178R): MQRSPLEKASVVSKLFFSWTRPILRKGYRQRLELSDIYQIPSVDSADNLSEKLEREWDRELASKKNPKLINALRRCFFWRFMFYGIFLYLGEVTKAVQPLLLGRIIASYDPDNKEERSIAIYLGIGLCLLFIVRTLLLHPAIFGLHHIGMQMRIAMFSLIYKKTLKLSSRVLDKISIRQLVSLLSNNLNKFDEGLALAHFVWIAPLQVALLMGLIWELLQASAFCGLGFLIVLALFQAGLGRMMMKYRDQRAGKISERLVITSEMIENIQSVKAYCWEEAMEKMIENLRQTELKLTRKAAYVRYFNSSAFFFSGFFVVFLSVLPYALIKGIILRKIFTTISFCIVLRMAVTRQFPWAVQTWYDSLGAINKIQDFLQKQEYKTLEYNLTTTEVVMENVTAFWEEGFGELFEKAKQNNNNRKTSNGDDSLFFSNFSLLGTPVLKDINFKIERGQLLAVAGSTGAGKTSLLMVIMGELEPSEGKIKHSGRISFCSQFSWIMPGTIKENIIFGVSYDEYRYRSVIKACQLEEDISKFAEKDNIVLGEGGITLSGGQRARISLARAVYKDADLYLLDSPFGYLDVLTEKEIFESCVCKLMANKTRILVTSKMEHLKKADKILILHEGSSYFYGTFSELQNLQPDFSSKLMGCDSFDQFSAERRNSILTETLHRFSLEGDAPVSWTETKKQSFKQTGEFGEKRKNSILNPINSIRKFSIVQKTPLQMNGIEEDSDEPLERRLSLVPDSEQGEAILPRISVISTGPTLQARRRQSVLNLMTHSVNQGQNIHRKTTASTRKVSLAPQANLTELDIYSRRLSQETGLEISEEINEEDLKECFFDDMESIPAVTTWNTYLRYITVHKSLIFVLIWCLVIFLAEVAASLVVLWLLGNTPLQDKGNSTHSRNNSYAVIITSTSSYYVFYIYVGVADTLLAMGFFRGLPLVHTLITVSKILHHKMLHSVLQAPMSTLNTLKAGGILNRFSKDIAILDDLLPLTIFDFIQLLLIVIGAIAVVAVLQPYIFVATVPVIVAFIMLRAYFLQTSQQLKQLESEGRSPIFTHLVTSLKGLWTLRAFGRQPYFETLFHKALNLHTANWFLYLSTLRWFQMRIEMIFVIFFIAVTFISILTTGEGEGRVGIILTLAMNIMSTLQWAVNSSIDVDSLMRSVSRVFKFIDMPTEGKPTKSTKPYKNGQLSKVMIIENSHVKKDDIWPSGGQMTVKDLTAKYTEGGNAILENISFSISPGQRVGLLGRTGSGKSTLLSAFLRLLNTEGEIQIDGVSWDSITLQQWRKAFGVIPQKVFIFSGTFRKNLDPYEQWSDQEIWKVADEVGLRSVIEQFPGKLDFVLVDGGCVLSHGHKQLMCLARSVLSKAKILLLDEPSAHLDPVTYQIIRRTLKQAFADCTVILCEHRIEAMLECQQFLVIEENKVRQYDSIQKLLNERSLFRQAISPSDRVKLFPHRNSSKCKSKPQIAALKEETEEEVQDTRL
run_description: YFP-halide influx assay for the CFTR-G178R
Format: cell-based
Kindly supply the reported % Activation values for the records listed here.
Give the value in % but do not write % after it.

The reported value for CC(C)(O)CNC(=O)c1ncc(S(=O)(=O)c2ccc(OC(F)(F)F)cc2)cc1N in terms of % Activation is 82.7

The reported value for Nc1cc(S(=O)(=O)c2ccc(OC(F)(F)F)cc2)cnc1C(=O)N1CC(O)(C2CC2)C1 in terms of % Activation is 78.08

The reported value for COCC(O)CNC(=O)c1ncc(S(=O)(=O)c2ccc(OC(F)(F)F)cc2)cc1N (stereo not shown) in terms of % Activation is 98.2

The reported value for C[C@H](O)CNC(=O)c1ncc(S(=O)(=O)c2ccc(OC(F)(F)F)cc2)cc1N in terms of % Activation is 86.1

The reported value for Nc1cc(S(=O)(=O)c2ccc(OC(F)(F)F)cc2)cnc1C(=O)N1CC(O)(C(F)(F)F)C1 in terms of % Activation is 74.5

The reported value for Nc1cc(S(=O)(=O)c2ccccc2OC(F)(F)F)cnc1C(=O)N1CC(F)(F)C1 in terms of % Activation is 73

The reported value for Nc1cc(S(=O)(=O)c2ccc(OC(F)(F)F)cc2)cnc1C(=O)N[C@@H]1COC[C@H]1O (racemic) in terms of % Activation is 84.3

The reported value for CC(C)OCC(O)CNC(=O)c1ncc(S(=O)(=O)c2ccc(C(F)(F)F)cc2)cc1N (stereo not shown) in terms of % Activation is 104.9

The reported value for Nc1cc(S(=O)(=O)c2ccc(OC(F)(F)F)cc2)cnc1C(=O)N[C@@H]1COCC[C@@H]1O (racemic) in terms of % Activation is 81.8

The reported value for CC(O)(CNC(=O)c1ncc(S(=O)(=O)c2ccc(F)cc2)cc1N)C(F)(F)F (stereo not shown) in terms of % Activation is 89.9

The reported value for Nc1cc(S(=O)(=O)N2CCC(C(F)(F)F)CC2)cnc1C(=O)NCC(O)C(F)(F)F (stereo not shown) in terms of % Activation is 80.8

The reported value for CC(O)(CNC(=O)c1ncc(S(=O)(=O)c2ccc(OC(F)(F)F)cc2)cc1N)C(F)(F)F (stereo not shown) in terms of % Activation is 71.8

The reported value for COC[C@H](O)CNC(=O)c1ncc(S(=O)(=O)c2ccc(C(F)(F)F)cc2)cc1N in terms of % Activation is 96.0

The reported value for Nc1cc(S(=O)(=O)c2ccc(OC(F)(F)F)cc2)cnc1C(=O)NCC(O)COCC1CC1 (stereo not shown) in terms of % Activation is 84.3

The reported value for C[C@H](O)CNC(=O)c1ncc(S(=O)(=O)c2ccc(C(F)(F)F)cc2)cc1N in terms of % Activation is 78.7

The reported value for COC[C@H](O)CNC(=O)c1ncc(S(=O)(=O)c2ccccc2OC(F)(F)F)cc1N in terms of % Activation is 104.0
